Origin of values: patent US7795229B2

reported endpoint: melting point

molecule	measured result
Cc1ccc(N2C(=O)[C@H](CCC(=O)c3ccc(F)cc3)[C@H]2c2ccc(C[C@@H]3O[C@H](CO)[C@@H](O)[C@H](O)[C@H]3O)cc2)cc1 [Compound 28]	86 to 88 °C

Cc1ccc(N2C(=O)[C@H](CC[C@H](O)c3ccc(F)cc3)[C@H]2c2ccc(CC[C@@H]3O[C@H](CO)[C@@H](O)[C@H](O)[C@H]3O)cc2)cc1 [Compound 57] has a reported melting point of 116 to 118 °C

CC(=O)OC[C@H]1O[C@@H](Cc2ccc([C@@H]3[C@@H](CCCc4ccc(F)cc4)C(=O)N3c3ccc(C)cc3)cc2)[C@H](OC(C)=O)[C@@H](OC(C)=O)[C@@H]1OC(C)=O [Compound 8] has a reported melting point of 56 to 58 °C

O=C1[C@H](CCCc2ccccc2)[C@@H](c2ccc(C[C@@H]3O[C@H](CO)[C@@H](O)[C@H](O)[C@H]3O)cc2)N1c1ccc(F)cc1 [Compound 11] has a reported melting point of 74 to 75 °C

O=C1[C@H](CC[C@H](O)c2ccc(F)cc2)[C@@H](c2ccc(CCCCC[C@@H]3O[C@H](CO)[C@@H](O)[C@H](O)[C@H]3O)cc2)N1c1ccc(F)cc1 [Compound 55] has a reported melting point of 66 to 68 °C

----------
reported endpoint: melting point

// below: answered molecules
smi	reported endpoint	measured result
CC(=O)OC[C@H]1O[C@@H](Cc2ccc([C@@H]3[C@@H](CCCc4ccc(F)cc4)C(=O)N3c3ccc(F)cc3)cc2)[C@H](OC(C)=O)[C@@H](OC(C)=O)[C@@H]1OC(C)=O	melting point	56 to 58 °C
O=C1[C@H](CC[C@H](O)c2ccc(F)cc2)[C@@H](c2ccc(C[C@@H]3O[C@H](CO)[C@@H](O)[C@H](O)[C@H]3O)cc2)N1c1ccccc1	melting point	104 to 106 °C
CC(=O)OC[C@H]1O[C@@H](Cc2ccc([C@@H]3[C@@H](CCCc4ccc(F)cc4)C(=O)N3c3ccccc3)cc2)[C@H](OC(C)=O)[C@@H](OC(C)=O)[C@@H]1OC(C)=O	melting point	60 to 61 °C
O=C(O)c1ccc(N2C(=O)[C@H](CC[C@H](O)c3ccc(F)cc3)[C@H]2c2ccc(C[C@@H]3O[C@H](CO)[C@@H](O)[C@H](O)[C@H]3O)cc2)cc1	melting point	148 to 150 °C
O=C1[C@H](CC[C@H](O)c2ccc(F)cc2)[C@@H](c2ccc(CCCC[C@@H]3O[C@H](CO)[C@@H](O)[C@H](O)[C@H]3O)cc2)N1c1ccc(F)cc1	melting point	81 to 83 °C

Next up:
O=C(O)c1ccc(N2C(=O)[C@H](CCC(=O)c3ccc(F)cc3)[C@H]2c2ccc(C[C@@H]3O[C@H](CO)[C@@H](O)[C@H](O)[C@H]3O)cc2)cc1 has a reported melting point of 102 to 104 °C

----------
We begin with a simple list: items and their reported melting point.

molecule	melting point
O=C1[C@H](CCCc2ccc(F)cc2)[C@@H](c2ccc(OC[C@@H]3O[C@H](CO)[C@@H](O)[C@H](O)[C@H]3O)cc2)N1c1ccc(F)cc1	61 to 62 °C
O=C(CC[C@H]1C(=O)N(c2ccc(F)cc2)[C@@H]1c1ccc([C@@H]2O[C@H](CO)[C@@H](O)[C@H](O)[C@H]2O)cc1)c1ccc(F)cc1	83 to 85 °C
Cc1ccc(N2C(=O)[C@H](CC[C@H](O)c3ccc(F)cc3)[C@H]2c2ccc(C[C@@H]3O[C@H](CO)[C@@H](O)[C@H](O)[C@H]3O)cc2)cc1	102 to 104 °C

O=C1[C@H](CC[C@H](O)c2ccc(F)cc2)[C@@H](c2ccc(C[C@@H]3O[C@H](CO)[C@@H](O)[C@H](O)[C@H]3O)cc2)N1c1ccc(F)cc1 has a reported melting point of 115 to 117 °C

O=C1[C@H](CC[C@H](O)c2ccc(F)cc2)[C@@H](c2ccc(F)cc2)N1c1ccc(C[C@@H]2O[C@H](CO)[C@@H](O)[C@H](O)[C@H]2O)cc1 has a reported melting point of 200 to 201 °C

O=C1[C@H](CC[C@H](O)c2ccc([C@H]3O[C@@H](CO)[C@H](O)[C@@H](O)[C@@H]3O)cc2)C(c2ccc(F)cc2)N1c1ccc(F)cc1 (some centres unmarked) has a reported melting point of 111 to 113 °C

Cc1ccc(N2C(=O)[C@H](CCOc3ccc(F)cc3)[C@H]2c2ccc(C[C@@H]3O[C@H](CO)[C@@H](O)[C@H](O)[C@H]3O)cc2)cc1 has a reported melting point of 96 to 98 °C

Cc1ccc(N2C(=O)[C@H](CC[C@H](O)c3ccc(F)cc3)[C@H]2c2ccc([C@@H]3O[C@H](CO)[C@@H](O)[C@H](O)[C@H]3O)cc2)cc1 has a reported melting point of 79 to 81 °C

CCOC(=O)C(C)(C)Oc1ccc(N2C(=O)[C@H](CCCc3ccc(C)cc3)[C@H]2c2ccc(C[C@@H]3O[C@H](CO)[C@@H](O)[C@H](O)[C@H]3O)cc2)cc1 has a reported melting point of 76 to 78 °C

Cc1ccc(N2C(=O)[C@H](CCCc3ccc(F)cc3)[C@H]2c2ccc(C[C@@H]3O[C@H](CO)[C@@H](O)[C@H](O)[C@H]3O)cc2)cc1 has a reported melting point of 80 to 82 °C

O=C1[C@H](CC[C@H](O)c2ccc(F)cc2)[C@@H](c2ccc(/C=C/CC[C@@H]3O[C@H](CO)[C@@H](O)[C@H](O)[C@H]3O)cc2)N1c1ccc(F)cc1 has a reported melting point of 79 to 81 °C
